B1: type 2 EBNA2 polypeptide T2 EBNA2_(348-422) [Epstein-Barr virus type 2 (AG876)] / BS69 coiled-coil MYND domain (BS69_(CC-MYND), amino acids 480-602) [human] (parent)
chain 1: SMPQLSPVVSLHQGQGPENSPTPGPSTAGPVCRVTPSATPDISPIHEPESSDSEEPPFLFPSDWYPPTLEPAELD
chain 2: DRMKSDHKRETERVVREALEKLRSEMEEEKRQAVNKAVANMQGEMDRKCKQVKEKCKEEFVEEIKKLATQHKQLISQTKKKQWCYNCEEEAMYHCCWNTSYCSIKCQQEHWHAEHKRTCRRKR

# Variants of: B1
# Assay Remarks: ITC
# Conditions Used: with BS69 coiled-coil MYND domain (BS69_(CC-MYND), amino acids 480-602) [human]; binding event 1 (KD1), two-site model; 29 injections of 1.3 μl 0.3 mM EBNA2 polypeptide and 0.1 mM BS69CC-MYND in the cell; parent: 9 nM
// reported Kd per item
Number only, in nM; omit the unit.

>>> result_value("chain 1 S62D")
5

Now look at this one.
get_value(item= chain 1 S62D P67A L69A P71A , readout=Kd) returns 8
